Listed molecules paired with reported melting point

Answered cases to consult:
COc1cc2c(cc1O)CCN(S(=O)(=O)c1cccc(C#N)c1)C2    204 to 206 °C
COc1cc2c(cc1O)CCN(Cc1ccccn1)C2    137 to 138 °C
COc1cccc(CN2CCc3cc(O)c(OC)cc3C2C)c1 (stereo not shown)    97 to 99 °C

Proceeding to the next molecule to report its melting point.
Exercise: Give me measured melting point, please, for this molecule: `COc1cc2c(cc1O[Si](C(C)C)(C(C)C)C(C)C)CCN(Cc1cccc([N+](=O)[O-])c1)C2`
Key: 57.3 to 58.6 °C

----------
Measured Quantity: melting point

The following molecules have reported results that may help.
COc1cc2c(cc1OCc1ccccc1)CCN(C(=O)c1cc(OC)c(OC)c(OC)c1)C2=O    195 to 196 °C
COc1cc2c(cc1O)CCCN(Cc1cc(OC)c(OC)c(OC)c1)C2    46 to 48 °C
COc1cc2c(cc1O)C(OC)CN(Cc1ccccc1OC)C2 (stereo not shown)    45 to 47 °C
COc1cc2c(cc1OCc1ccccc1)CCN(S(=O)(=O)c1cccc(Cl)c1)C2=O    155 to 158 °C
COc1cc2c(cc1O)CCN(C(=O)c1ccc(OC)c(OC)c1)C2=O    199 to 200 °C

// next item, melting point requested
Exercise: Give the measured melting point for `COc1cccc(CN2CCc3cc(OCc4ccccc4)c(OC)cc3C2)c1`
Key: 71 to 72 °C

----------
Measured Quantity: melting point

COc1ccc(C(=O)N2CCc3cc(O)ccc3C2)cc1OC    58 to 77 °C
COc1ccc(CN2CCc3cc(O)ccc3C2)cc1OC    119 to 122 °C
COc1ccc(S(=O)(=O)N2CCc3cc(O)c(OC)cc3C2)cc1    147 to 149 °C

Exercise: Read the entry `COc1ccc(C(=O)N2CCc3cc(O)c(OC)cc3C2)cc1` and write its reported melting point.
Key: 173 to 174 °C

Exercise: Fill in melting point for record `COc1cccc(C(=O)N2CCc3cc(O)c(OC)cc3C2=O)c1`
Key: 198 to 199 °C

Exercise: Please look at this compound and report its melting point: `COc1cccc(CN2CCc3cc(O)c(OC)cc3C2=O)c1`
Key: 181 to 182 °C

Exercise: Identify the reported melting point for the following entry. `COc1cc2c(cc1O)CCN(Cc1cccc(Oc3ccccc3)c1)C2`
Key: 139 to 140 °C
